Species: Rattus norvegicus
Experiment: Open TG-GATES - Regimen: Daily Repeat
Format: toxicity, organism-based, Sprague-Dawley
Set-up: regimen Daily Repeat, gender Male, age 6 weeks
Details: in vivo, po, 0 mg/kg, […], tissue Blood, route gavage, dose level Control, time 7 day
Would you kindly list Ret for each of these compounds?
Please report the result as a number followed by the unit.

Input line: What Ret value was documented for this compound, CCCCC1C(=O)N(c2ccccc2)N(c2ccccc2)C1=O [PHENYLBUTAZONE] ?
Output line: 5.4%

Input line: Likewise for O=C(O)c1ccccc1Nc1ccccc1 [FENAMIC ACID] ?
Output line: 5.4%

Input line: Likewise for "CCN(CC)C(=S)SSC(=S)N(CC)CC" ?
Output line: 6.3%

Input line: Likewise for CN(CCOc1ccc(CC2SC(=O)NC2=O)cc1)c1ccccn1.O=C(O)/C=C\C(=O)O (stereo unspecified) [ROSIGLITAZONE MALEATE] ?
Output line: 4.6%

Input line: Likewise for "Nc1ccc(Cc2ccc(N)cc2)cc1" ?
Output line: 5.3%

Input line: Likewise for CCO [ALCOHOL] ?
Output line: 5.2%

# credit: ChEMBL document CHEMBL3885861
